Value source: ChEMBL document CHEMBL4261533

# Tgt: Gastrin/cholecystokinin type B receptor (Homo sapiens, UniProt P32239)
# Sequence (P32239 whole entry): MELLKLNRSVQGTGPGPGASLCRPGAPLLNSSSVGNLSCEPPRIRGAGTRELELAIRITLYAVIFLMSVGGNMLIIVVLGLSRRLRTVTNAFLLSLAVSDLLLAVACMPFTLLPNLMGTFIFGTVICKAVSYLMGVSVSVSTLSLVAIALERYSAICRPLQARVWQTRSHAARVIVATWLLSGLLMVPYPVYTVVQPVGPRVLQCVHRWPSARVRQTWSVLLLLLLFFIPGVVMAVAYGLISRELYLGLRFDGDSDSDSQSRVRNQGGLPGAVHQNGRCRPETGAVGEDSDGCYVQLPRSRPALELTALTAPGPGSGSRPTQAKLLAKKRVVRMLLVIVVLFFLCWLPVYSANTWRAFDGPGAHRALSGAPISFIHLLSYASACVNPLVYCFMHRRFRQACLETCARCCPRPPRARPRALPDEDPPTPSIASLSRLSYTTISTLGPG
Experimental Readout: IC50 (nM)
Number in nM, nothing else.

Quick note, IC50 for CNc1cccc(NC(=O)NC2N=C(c3ccccn3)c3ccccc3N(CC(=O)C(C)(C)C)C2=O)c1 (stereo unspecified) landed at 0.1

###

# Tested on: MIA PaCa-2
# Test Details: Cytotoxicity against human MIAPaCa2 cells assessed as reduction in cell viability after 24 hrs by MTT assay
# Format: functional, cell-based
# Run Parameters: MIA PaCa-2, 24 h
Experimental Readout: pIC50
The read-out pIC50 is expressed as -log10 of concentration in moles per litre.

Quick note, pIC50 for `CCOc1ccc(-n2c(NNC(=S)Nc3cccc(C(=O)O)c3)nc3ccccc3c2=O)cc1` landed at 3.55

Quick note, pIC50 for `O=C1Nc2ccccc2/C1=N/Nc1nc2ccccc2c(=O)n1-c1cccc(Br)c1` landed at 3.70

Quick note, pIC50 for `O=C(O)c1cccc(NC(=S)NNc2nc3ccccc3c(=O)n2-c2cccc(Br)c2)c1` landed at 3.82

Quick note, pIC50 for `CCOc1ccc(-n2c(NNC(=S)Nc3ccc(Br)cc3)nc3ccccc3c2=O)cc1` landed at 5.00

Quick note, pIC50 for `CCOc1ccc(NC(=S)NNc2nc3ccccc3c(=O)n2-c2ccc(Cl)cc2)cc1` landed at 4.10

Quick note, pIC50 for `Cc1ccc(-n2c(N/N=C3\C(=O)Nc4ccccc43)nc3ccccc3c2=O)cc1` landed at 5.00

Quick note, pIC50 for Cc1cccc(NC(=O)NC2N=C(c3ccccc3)c3ccccc3N(C)C2=O)c1 (stereo not drawn) landed at 8.74

Quick note, pIC50 for `O=C(O)c1cccc(NC(=S)NNc2nc3ccccc3c(=O)n2-c2ccc(Br)cc2)c1` landed at 3.70

Quick note, pIC50 for `O=C1Nc2ccccc2/C1=N/Nc1nc2ccccc2c(=O)n1-c1ccc(Cl)cc1` landed at 4.00

Quick note, pIC50 for `CCOc1ccc(-n2c(N/N=C3\C(=O)Nc4ccccc43)nc3ccccc3c2=O)cc1` landed at 4.10

Quick note, pIC50 for `O=C1Nc2ccccc2/C1=N/Nc1nc2ccccc2c(=O)n1-c1cccc(Cl)c1` landed at 4.04

Quick note, pIC50 for `O=C(O)c1cccc(NC(=S)NNc2nc3ccccc3c(=O)n2-c2ccccc2)c1` landed at 3.74

Quick note, pIC50 for `CCOc1ccc(-n2c(NNC(=S)Nc3ccc(Cl)cc3)nc3ccccc3c2=O)cc1` landed at 3.60
